Numbers sourced from patent US11254686B1.

- Tested Target: adenosine A2B receptor (Homo sapiens (Human), UniProt P29275)
- Sequence (P29275 whole entry): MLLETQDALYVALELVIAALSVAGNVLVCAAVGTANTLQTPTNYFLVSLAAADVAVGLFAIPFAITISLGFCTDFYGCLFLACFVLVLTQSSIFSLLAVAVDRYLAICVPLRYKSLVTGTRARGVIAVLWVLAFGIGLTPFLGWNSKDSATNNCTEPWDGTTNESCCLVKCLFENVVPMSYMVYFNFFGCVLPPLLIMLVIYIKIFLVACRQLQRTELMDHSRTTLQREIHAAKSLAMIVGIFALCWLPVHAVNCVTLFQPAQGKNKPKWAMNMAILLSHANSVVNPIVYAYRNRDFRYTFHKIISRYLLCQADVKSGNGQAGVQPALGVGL
- Protocol Notes: Adenosine receptor activity assay (Table 1), A2B activity
- Format: biochemical
- Protocol Conditions: A2A activity to the A2B activity; A2A/A2B
Returns: string. Value is Satisfied if measured Ratio is below 2, and Not satisfied if it is greater than or equal to it.

stdin: Problem: For the compound Cc1cc2nc(N[C@@H](C)c3cncc(F)c3)nc(C(=O)N3CC(N(C)C)C3)c2s1 , is Ratio under 2?
stdout: Not satisfied

stdin: Given the entry C[C@H](Nc1nc(C(=O)N2CC[C@H](NC(=O)OCc3ccccc3)C2)c2sccc2n1)c1cncc(F)c1 , would its reported Ratio be below 2?
stdout: Not satisfied

stdin: API: query returns whether the compound falls strictly under 2 in Ratio. Query: COC[C@H]1CCN1C(=O)c1nc(N[C@@H](C)c2cncc(F)c2)nc2ccsc12
stdout: Not satisfied

stdin: Below 2 on Ratio? Entry CCNC(=O)c1ccc(CCNC(=O)c2nc(N[C@@H](C)c3cncc(F)c3)nc3cc(C)sc23)cc1
stdout: Not satisfied

stdin: Say whether its Ratio is strictly beneath 2. Entry: Cc1cc2nc(N[C@@H](C)c3cncc(F)c3)nc(C(=O)NCCC3CCNCC3)c2s1
stdout: Not satisfied

stdin: Dear reviewer, please state whether COc1ccc(CNC(=O)c2nc(N[C@@H](C)c3ccccn3)nc3cc(C)sc23)cc1 has Ratio strictly beneath 2.
stdout: Not satisfied

stdin: Consider COc1ccc(CNC(=O)c2nc(N[C@@H](C)c3ccccn3)nc3ccsc23)cc1 . Does its Ratio lie strictly below 2?
stdout: Satisfied

stdin: Field: below-cutoff. Rule: recorded Ratio strictly less than 2. Subject: C[C@H](Nc1nc(C(=O)N2CC(NC(=O)c3ccc(-c4ccccc4)cc3)C2)c2sccc2n1)c1cncc(F)c1
stdout: Satisfied

stdin: Threshold test, Ratio < 2: Cc1cc2nc(N[C@@H](C)c3ccccn3)nc(C(=O)N3CC(CN)C3)c2s1
stdout: Not satisfied

stdin: Ratio under 2? Item: C[C@H](Nc1nc(C(=O)NCCc2ccc(S(N)(=O)=O)cc2)c2sccc2n1)c1cncc(F)c1
stdout: Not satisfied

stdin: A record lists C[C@H](Nc1nc(C(=O)NCCC2CCNC2)c2sccc2n1)c1ccccn1 (stereo partly shown) . Is its Ratio below 2?
stdout: Not satisfied

stdin: Quick check: Ratio of COc1cccc(CNC(=O)c2nc(N[C@@H](C)c3ccccn3)nc3c(C)csc23)n1 under 2?
stdout: Satisfied

stdin: # strict comparison: is reported Ratio < 2? input = Cc1cc2nc(N[C@@H](C)c3cncc(F)c3)nc(C(=O)N3CC[C@H](NC(=O)OCc4ccccc4)C3)c2s1
stdout: Not satisfied

stdin: Please check: Ratio for COc1ncccc1CNC(=O)c1nc(N[C@@H](C)c2ccccn2)nc2ccsc12 , strictly under 2 or not?
stdout: Satisfied

stdin: Decide: Ratio of CNC(=O)N1CCN(C(=O)c2nc(N[C@@H](C)c3cncc(F)c3)nc3ccsc23)C1 strictly below 2?
stdout: Not satisfied

stdin: Given C[C@H](Nc1nc(C(=O)NCCC2CN(C(=O)OC(C)(C)C)C2)c2sccc2n1)c1ccccn1 , is recorded Ratio strictly lower than 2?
stdout: Not satisfied

stdin: Is Ratio strictly under 2 for the entry Cc1cc2nc(N[C@@H](C)c3cncc(F)c3)nc(C(=O)N3CC(CNC(=O)CC(C)(C)C)C3)c2s1 ?
stdout: Not satisfied

stdin: Ratio under 2? Item: COc1ccc([C@H](C)Nc2nc(C(=O)N3CC(NC(C)=O)C3)c3sc(C)cc3n2)cc1
stdout: Satisfied

stdin: Does the reported Ratio of Cc1cc2nc(N[C@@H](C)c3cncc(F)c3)nc(C(=O)NCCC3CN(C)C3)c2s1 stay below 2?
stdout: Not satisfied

stdin: Quick check: Ratio of COC1(C)CN(C(=O)c2nc(N[C@@H](C)c3ccccn3)nc3cc(C)sc23)C1 under 2?
stdout: Not satisfied

stdin: Regarding Cc1cc2nc(N[C@@H](C)c3cccnc3)nc(C(=O)NCC[C@H]3CCNC3)c2s1 , kindly confirm whether its Ratio is beneath 2.
stdout: Not satisfied

stdin: Is it true that Ratio reported for C[C@H](Nc1nc(C(=O)NCCc2ccc(O)cc2)c2sccc2n1)c1ccccn1 is less than 2?
stdout: Not satisfied

stdin: Please check: Ratio for Cc1cc2nc(N[C@@H](C)c3cncc(F)c3)nc(C(=O)N3CC(NC(=O)[C@H]4CCOC4)C3)c2s1 , strictly under 2 or not?
stdout: Satisfied

stdin: Lab log: compare recorded Ratio with 2; is it strictly lower for C[C@H](Nc1nc(C(=O)N2CC(NC(=O)c3ccncc3)C2)c2sccc2n1)c1cncc(F)c1 ?
stdout: Not satisfied

stdin: Does C[C@H](Nc1nc(C(=O)N2CC(NC(=O)C(C)(C)C)C2)c2sccc2n1)c1cncc(F)c1 have Ratio strictly under 2?
stdout: Satisfied

stdin: Threshold test, Ratio < 2: C[C@H](Nc1nc(C(=O)N2CC(NC(=O)C3CC3)C2)c2sccc2n1)c1cncc(F)c1
stdout: Not satisfied

stdin: hey, is Ratio for Cc1cc2nc(N[C@@H](C)c3cncc(F)c3)nc(C(=O)NCCC3CCN(C(=O)OC(C)(C)C)CC3)c2s1 lower than 2 or not?
stdout: Not satisfied

stdin: Input C[C@H](Nc1nc(C(=O)N2CC(NC(=O)c3cccc(C(F)(F)F)c3)C2)c2sccc2n1)c1cncc(F)c1 ; condition: Ratio strictly below 2. Does it hold?
stdout: Satisfied

stdin: Please let me know if CCOc1ccc(CNc2nc(C(=O)NCCc3cccc(O)c3)c3sccc3n2)cn1 shows Ratio below 2.
stdout: Satisfied

stdin: State whether 2 exceeds Ratio recorded for C[C@H](Nc1nc(C(=O)NCCc2cccc(O)c2)c2sccc2n1)c1ccccn1 .
stdout: Not satisfied

stdin: Check if Ratio falls below 2 for C[C@H](Nc1nc(C(=O)N2CC[C@@H](C(=O)NOC3CCCC3)C2)c2sccc2n1)c1cncc(F)c1 .
stdout: Satisfied
